# target.under.test: CTX-M-15 (Escherichia coli)
# Construct: hexahistidine (pOPINF, 3C-cleavable) (N, cleaved yes); made in house; host or cells: E. coli BL21(DE3)
# Sequence (Q9EXV5 entry or part of it): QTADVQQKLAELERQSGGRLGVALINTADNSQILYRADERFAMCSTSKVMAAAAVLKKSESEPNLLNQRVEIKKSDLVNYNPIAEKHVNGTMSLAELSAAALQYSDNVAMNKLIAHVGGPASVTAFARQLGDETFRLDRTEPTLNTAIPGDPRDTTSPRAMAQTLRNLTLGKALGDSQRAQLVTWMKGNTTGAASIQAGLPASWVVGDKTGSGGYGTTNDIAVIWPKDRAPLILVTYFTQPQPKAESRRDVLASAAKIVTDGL
# assay.procedure: FC5 fluorogenic β-lactamase inhibition assay, CTX-M-15
# Format: biochemical
# condition.details: preincubation 360 min; FC5 substrate; read-out: IC50, nM (mean ± SD) for CTX-M-15
measured.endpoint: IC50 (nM)

INSERT INTO results (test_smiles, number) VALUES
  ('NC(=O)[C@@H]1CC[C@@H]2CN1C(=O)N2OS(=O)(=O)O', 6.4);

###

# System: P. stuartii PS71
# assay.procedure: Broth microtiter dilution MIC, PS71
# Format: cell-based
# condition.details: Providencia stuartii, TEM-1 (A), SHV-5 (A), VEB-1 (A), VIM-1 (B), with cyclic boronate 2 (10 mg/liter) supplementation, read-out: MIC (mg/liter) for β-lactam
measured.endpoint: MIC

INSERT INTO assay_data (test_smiles, target_under_test, measured_endpoint, result) VALUES
  ('CCN1CCN(C(=O)N[C@@H](C(=O)N[C@@H]2C(=O)N3[C@@H]2SC(C)(C)[C@@H]3C(=O)O)c2ccccc2)C(=O)C1=O', 'P. stuartii PS71', 'MIC', '> 64 mg/L'),
  ('CC(C)(O/N=C(\C(=O)N[C@@H]1C(=O)N2C(C(=O)[O-])=C(C[n+]3ccccc3)CS[C@H]12)c1csc(N)n1)C(=O)O', 'P. stuartii PS71', 'MIC', '> 16 mg/L'),
  ('CC1(C)S[C@@H]2[C@H](NC(=O)[C@H](N)c3ccccc3)C(=O)N2[C@H]1C(=O)O', 'P. stuartii PS71', 'MIC', '> 16 mg/L');

###

# System: E. coli EC86
# assay.procedure: Broth microtiter dilution MIC, EC86
# Assay type: cell-based
# condition.details: Escherichia coli; E. coli EC86; CTX-M-15 (A), CMY-4 (C), OXA-181 (D); with cyclic boronate 2 (10 mg/liter) supplementation; read-out: MIC (mg/liter) for β-lactam
Listed next: entries and their corresponding MIC.
measured.endpoint: MIC

INSERT INTO measurements (molecule, target_under_test, result) VALUES
  ('CC1(C)S[C@@H]2[C@H](NC(=O)[C@H](N)c3ccccc3)C(=O)N2[C@H]1C(=O)O', 'E. coli EC86', '> 16 mg/L'),
  ('CO/N=C(\C(=O)N[C@@H]1C(=O)N2C(C(=O)[O-])=C(C[N+]3(C)CCCC3)CS[C@H]12)c1csc(N)n1 [FEP, cefepime]', 'E. coli EC86', '≤ 4 mg/L'),
  ('CCN1CCN(C(=O)N[C@@H](C(=O)N[C@@H]2C(=O)N3[C@@H]2SC(C)(C)[C@@H]3C(=O)O)c2ccccc2)C(=O)C1=O', 'E. coli EC86', '> 64 mg/L');
